assay.summary: viability gain of MRP-1-high H69AR cells under doxorubicin, pilot screen, MRP-1 activator project, CellTiter-Glo, duplicate (AID 807);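 also: compound pretreatment 18-22 h then 72 h combined with doxorubicin; 0% = doxorubicin alone and 100% = vehicle without doxorubicin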
condition.notes: H69AR viability with doxorubicin, CellTiter-Glo luminescence; at 10 µM; active compounds read high
property.name: viability increase (%)

* Cc1nn(Cc2ccccc2)c(N)c1-c1ccccc1 | -0.57
* COc1ccc(C2CC(c3cccc(C)c3)n3nc(N)nc3N2)cc1 (stereo unspecified) | -1.84
* Cc1cc(Nc2cccc(F)c2)n2nc(C)nc2n1 | -2.42
* CCCC1(C(=O)O)NC(c2ccc(OC)cc2O)C2C(=O)N(c3ccc(OC)cc3)C(=O)C21 (stereo unspecified) | -0.54
* COc1cccc(-c2nc(CS(=O)CC(=O)NC3CCCC3)c(C)o2)c1 (stereo unspecified) | -2.4
* Cc1ccc(C)c(N2CCN(C(=O)c3cc4ccccc4oc3=O)CC2)c1 | 1.72
* CCOC(=O)c1ccccc1NC(=O)CN(c1cccc(OC)c1)S(C)(=O)=O | -5.04
* CC(C)N1CCc2c(sc(NC(=O)c3ccc(S(=O)(=O)N4CCOCC4)cc3)c2C#N)C1 | -2.2
* Cc1sc2nc3ccc(N4CCCC4)nn3c(=O)c2c1C | -2.12
* Nc1ccccc1-c1nnc(SCc2ccccc2F)[nH]c1=O | 2.02
* Cc1ccc(S(=O)(=O)NCc2ccco2)cc1C | -3.83

====

assay.summary: inhibitors of the yeast RAM network, pilot screen, dse1pr::URA3 reporter, 5-FOA selection (AID 869);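 also: 0% = DMSO wells with no growth and 100% = 10 µM 1-NA-PP1 with full growth; RAM network block rescues cells from 5-FOA so hits raise OD615 growth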
condition.notes: S. cerevisiae dse1pr::URA3 5-FOA growth, OD615, 2 d; at 10 µM; active compounds read high; strain carries analog-sensitive mutant Cbk1 kinase
Active and inactive are the calls of the source.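 How the source made its calls: active means inhibition over a set limit, the all-compound mean plus 3 SD, in both replicate runs; inconclusive means over that limit in just one replicate run; inactive means at or under that limit in both runs.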
property.name: inhibition

* Cn1nc(-c2ccc(Cl)cc2)c2cc(C(=O)NC3CC3)sc21 | 3.62% (inactive)
* CCOC(=O)c1sc(NC(=O)c2cccnc2)nc1C | 1.7% (inactive)
* CC(=O)Oc1cccc(N2C(=O)C3CC=C(Cl)CC3C2=O)c1 (stereo unspecified) | 2.81% (inactive)
* Cc1ccc(-c2nc(CS(=O)(=O)CC(=O)NC3CCCCC3C)c(C)o2)cc1 (stereo unspecified) | 1.73% (inactive)
* Cc1cc(C)c(S(=O)(=O)Nc2ccc(O)cc2)c(C)c1 | 1.2% (inactive)
* CC(Sc1ccc2nnc(-c3ccc(F)cc3)n2n1)C(=O)O (stereo unspecified) | 1.28% (inactive)

====

assay.summary: Restrictive medium S. cerevisiae growth inhibition, OD615, pilot screen of yeast lifespan reduction project, restrictive growth control (AID 706);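 also: modified DeaD lifespan yeast strain shifted to restrictive glucose medium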
condition.notes: OD615, 48 h, at 10 µM, active compounds read high
Recorded growth inhibition values for a group of molecules are listed next.
property.name: growth inhibition (%)

- O=C1c2ccccc2C(=O)N1Cc1nc2ccccc2c(=O)n1CCCn1ccnc1: 0.74
- COC(=O)c1ccccc1NS(=O)(=O)c1cn(C)c(=O)n(C)c1=O: -6.46
- CC(=O)Cc1nsc(NC(=O)C2Cc3ccccc3C(=O)O2)n1 (stereo unspecified): -1.69
- O=C1c2ccccc2C(O)N1Cc1ccccc1Cl (stereo unspecified): -0.325
- CCOc1ccc(N2CC(C(=O)NCCC3=CCCCC3)CC2=O)cc1 (stereo unspecified): -18.5
- CCC(CC)C(=O)N1c2ccc(F)cc2CCC1C (stereo unspecified): -10.7
- Cn1nc(-c2ccc(Cl)cc2)c2cc(C(=O)N3CCN(c4ccccc4)CC3)sc21: -3.28
- O=C1C2CC=C(Cl)CC2C(=O)N1CC1Cc2ccccc2CO1 (stereo unspecified): 0.875
- COC(=O)c1ccc2c(=O)n3c(nc2c1)SCC(c1ccccc1)=N3: -0.25
- Cc1nn(-c2ccccc2)c(C)c1C(=O)OCC(=O)Nc1ccc2c(c1)OCO2: -15.7
- CCOC(=O)NC(Nc1ncccn1)(C(F)(F)F)C(F)(F)F: -5.49
